Listing of entries alongside the reported normalized growth.
# test: chemical genetic growth profiling, strain panel (AID 1159580);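 note: tested at 20 µM; growth read once vehicle control cultures reached saturation at 30 °C; 1 = growth at the plate median or of vehicle wells; lower values mean less growth of the strain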
# assay_conditions: S. cerevisiae deletion strains, growth OD, locus YBR229C, strain ROT2, active compounds read low
The campaign covered roughly 5,500 compounds. About 2,000 (36%) were called active. Inconclusive results (about 18%) are left out. Some of the results follow.
Please reply with the value in numeric form only.

Use these answered entries as a reference point.
C=C1c2c(Cl)ccc(O)c2C(O)=C2C(=O)[C@]3(O)C(O)=C(C(N)=O)C(=O)[C@@H](N(C)C)[C@@H]3[C@@H](O)[C@H]12 = 0.977
C=C1c2cccc(O)c2C(O)=C2C(=O)[C@]3(O)C(O)=C(C(N)=O)C(=O)[C@@H](N(C)C)[C@@H]3[C@@H](O)[C@H]12 = 0.987

Per the record, "CCCc1cc(=O)[nH]c(=S)[nH]1" has normalized growth of 1

Per the record, "COc1ccc2cc(CCC(C)=O)ccc2c1" has normalized growth of 0.919

Per the record, CC(CCc1ccccc1)NCC(O)c1ccc(O)c(C(N)=O)c1 (centres undefined) has normalized growth of 1

Per the record, CC(C)(C)NCC(O)c1ccc(O)c(CO)c1 (centres undefined) has normalized growth of 1

Per the record, "Cc1cc(=O)[nH]c(=S)[nH]1" has normalized growth of 1.01

Per the record, "C[C@H]1c2cccc(O)c2C(O)=C2C(=O)[C@]3(O)C(O)=C(C(N)=O)C(=O)[C@@H](N(C)C)[C@@H]3[C@@H](O)[C@@H]21" has normalized growth of 1

Per the record, "CN(C)c1ccc(O)c2c1C[C@H]1C[C@H]3[C@H](N(C)C)C(=O)C(C(N)=O)=C(O)[C@@]3(O)C(=O)C1=C2O" has normalized growth of 0.947
